Biological target: UniProt:Q13627
Test: Cellular DYRK1 autophosphorylation assay in U2-OS cells
Format: cell-based
Set-up: full-length, wild-type human DYRK1A (NM_001396) with an HA tag; expressed in transfected cells; host or cells: human U2-OS osteosarcoma cells, transient transfection of a pcDNA3.1 plasmid
Conditions: U2-OS cells transfected with HA-tagged human DYRK1A, 5 hours exposure; read-out: IC50 (μM) P-Ser520-Dyrk1A -Cell assay
Protocol: On day 2, cells were exposed to a range of concentrations of the test compounds of the invention for 5 hours. […] The relative levels of phospho-Ser520-DYRK1A were assayed using either western blotting or the Mesoscale ELISA platform. […] Chemiluminescence detection was performed using the ECL plus western blotting detection kit (Amersham) and was recorded on ECL plus hyperfilm (Amersham). […] After a further 1 hour, Read Buffer was added and plates were read on the Sector Imager 2400 (Mesoscale). […]
Please go through the items and note down their IC50.
Answers are plain numbers, in µM.

- molecule: "CCn1c(C#N)nc2ccc(-c3cc(N)nc(N)c3)nc21 [Example 223]"
  measuredProperty: "IC50"
  unitOfMeasurement: "µM"
  observedMeasurement: 0.097

Batch lookup, IC50 per entry.
1. Cc1nc2ccc(-c3cc(N)nc(N)c3)nc2n1C[C@H](C)Oc1ccccc1Cl (single isomer, unassigned) [Example 117]
2. COC1CCCCC1CCn1c(C)nc2ccc(-c3cc(N)nc(N)c3)nc21 (centres unmarked) [Example 95]
3. Cc1nc2ccc(-c3cc(N)nc(N)c3)nc2n1C[C@H](C)Oc1cccc(Br)n1 [Example 180]
4. N#Cc1nc2ccc(-c3cc(N)nc(N)c3)nc2n1C1CCCC1 [Example 221]

Solution:
1. 0.075
2. 0.021
3. 0.044
4. 0.043

====

molecular target: DYRK1A (Homo sapiens, UniProt Q13627); assay: Cellular DYRK1 autophosphorylation assay in U2-OS cells; type: cell-based; parameters: full-length, wild-type human DYRK1A (NM_001396) with an HA tag; expressed in transfected cells; host or cells: human U2-OS osteosarcoma cells, transient transfection of a pcDNA3.1 plasmid; details: U2-OS cells transfected with HA-tagged human DYRK1A, 5 hours exposure; read-out: IC50 (μM) P-Ser520-Dyrk1A -Cell assay
Please go through the items and note down their IC50.
Give bare numbers, in µM.

Worked cases, IC50 given:
- compound: "Cc1nc2ccc(-c3cc(N)nc(N)c3)nc2n1C[C@H](C)Oc1ccccc1F (single isomer, unassigned) [Example 133]"
  systemUnderTest: "DYRK1A (Homo sapiens, UniProt Q13627)"
  IC50 / µM: 0.074
- compound: "Cc1nc2ccc(-c3cc(N)nc(N)c3)nc2n1C1CC(F)(F)C1 [Example 101]"
  systemUnderTest: "DYRK1A (Homo sapiens, UniProt Q13627)"
  IC50 / µM: 0.006
- compound: "COc1cccc(CCn2c(C)nc3ccc(-c4cc(N)nc(N)c4)nc32)c1 [Example 152]"
  systemUnderTest: "DYRK1A (Homo sapiens, UniProt Q13627)"
  IC50 / µM: 0.22
- compound: "Cc1nc2ccc(-c3cc(N)nc(N)c3)nc2n1CCc1ccc(F)cc1 [Example 96]"
  systemUnderTest: "DYRK1A (Homo sapiens, UniProt Q13627)"
  IC50 / µM: 0.075
- compound: "Cc1nc2ccc(-c3cc(N)nc(N)c3)nc2n1C[C@H](C)Oc1ccccc1 (single isomer, unassigned) [Example 107]"
  systemUnderTest: "DYRK1A (Homo sapiens, UniProt Q13627)"
  IC50 / µM: 0.111
- compound: "Cc1nc2ccc(-c3cc(N)nc(N)c3)nc2n1C(C)(C)C [Example 25]"
  systemUnderTest: "DYRK1A (Homo sapiens, UniProt Q13627)"
  IC50 / µM: 0.228
- compound: "Cc1nc2ccc(-c3cc(N)nc(N)c3)nc2n1C1CC(c2ccccc2)C1 (centres unmarked) [Example 100]"
  systemUnderTest: "DYRK1A (Homo sapiens, UniProt Q13627)"
  IC50 / µM: 0.006

Problem: For Cc1nc2ccc(-c3cc(N)nc(F)c3)nc2n1C1CC(F)(F)C1 [Example 240] , what is its reported IC50?
Solution: 0.153

Data provenance: patent US20180273528A1
